These data points were gathered from ChEMBL document CHEMBL1921790.

Kindly state MIC for each of the entries shown.
- Tested on: Trichophyton mentagrophytes
- Procedure Text: Antifungal activity against Trichophyton mentagrophytes IFO 40996 after 48 to 72 hrs by two fold serial dilution method
- Type: functional
Answers are plain numbers, in µg/mL.

Example entries begin here.
>>> print(df.to_string())
                                   compound  recorded_value
0  CCCCCC(c1cc(Br)c(O)cc1O)c1cc(Br)c(O)cc1O              25
1  Oc1cc(O)c(C(c2cc(Br)c(O)cc2O)c2c(Cl)cccc2Cl)cc1Br             100
2  CCCCCC(c1ccc(O)cc1O)c1cc(Br)c(O)cc1O (configuration not stated)              50

Here is another compound to look at.
Query: What is its MIC for Trichophyton mentagrophytes? Entry: CC1(C)S[C@@H]2[C@H](NC(=O)[C@H](N)c3ccccc3)C(=O)N2[C@H]1C(=O)O
Response: 1.56

---

- Target Or Test System: Isocitrate lyase (Candida albicans, UniProt Q9P8Q7)
- Sequence (Q9P8Q7 whole entry): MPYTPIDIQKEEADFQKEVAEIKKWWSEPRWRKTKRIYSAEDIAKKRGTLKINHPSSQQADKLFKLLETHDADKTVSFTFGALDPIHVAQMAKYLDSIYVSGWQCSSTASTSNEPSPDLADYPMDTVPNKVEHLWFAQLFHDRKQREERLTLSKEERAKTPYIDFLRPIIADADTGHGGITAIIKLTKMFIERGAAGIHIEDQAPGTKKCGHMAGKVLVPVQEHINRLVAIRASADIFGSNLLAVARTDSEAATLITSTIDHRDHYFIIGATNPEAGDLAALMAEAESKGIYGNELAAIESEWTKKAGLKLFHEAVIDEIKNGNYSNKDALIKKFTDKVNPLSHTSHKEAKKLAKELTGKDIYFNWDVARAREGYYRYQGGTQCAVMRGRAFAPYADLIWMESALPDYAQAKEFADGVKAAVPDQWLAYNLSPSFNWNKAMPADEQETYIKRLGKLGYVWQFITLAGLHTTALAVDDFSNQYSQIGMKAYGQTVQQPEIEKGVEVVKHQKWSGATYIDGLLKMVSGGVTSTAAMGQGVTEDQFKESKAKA
pIC50: −log10 of the molar value.
Threshold check on pIC50: at or above 4 gives YES, strictly below gives NO.

Examples from the recorded data:
>>> df
                                   molecule  class_name
0  CCCCCC(c1cc(Br)c(O)cc1O)c1cc(Br)c(O)cc1O         YES
1                      O=C(O)CC[N+](=O)[O-]         YES
2  O=[N+]([O-])c1cccc(C(c2ccc(O)cc2O)c2cc(Br)c(O)cc2O)c1 (stereo unspecified)         YES
3          CCCCCC(c1ccc(O)cc1O)c1ccc(O)cc1O          NO

# ---- query molecule ----
Query: Is it the case that Oc1ccc(C(c2cc(Br)c(O)cc2O)c2cc(Br)c(O)cc2O)cc1 has pIC50 reaching or exceeding 4?
Response: YES

---

- Test system: Trichophyton mentagrophytes
- Procedure Text: Antifungal activity against Trichophyton mentagrophytes IFO 40996 after 48 to 72 hrs by two fold serial dilution method
- Assay type: functional
Readout: MIC (µg/mL)
Give bare numbers, in µg/mL.

>>> print(df.to_string())
                           substance_smiles        target_or_test_system  recorded_value
0  Oc1ccc(C(c2cc(Br)c(O)cc2O)c2cc(Br)c(O)cc2O)cc1  Trichophyton mentagrophytes             100

Consider the record given below.
Query: Form field: MIC recorded for O=[N+]([O-])c1cccc(C(c2cc(Br)c(O)cc2O)c2cc(Br)c(O)cc2O)c1 with Trichophyton mentagrophytes (enter value)
Response: 100

---

For each record, write down the corresponding MIC.
- Tested on: Trichophyton mentagrophytes
- Procedure Text: Antifungal activity against Trichophyton mentagrophytes IFO 40996 after 48 to 72 hrs by two fold serial dilution method
- Assay type: functional

These recorded examples may help you get a feel for the data.
In [3]: df
Out[3]:
                                   molecule  recorded_value
0  O=[N+]([O-])c1cccc(C(c2ccc(O)cc2O)c2cc(Br)c(O)cc2O)c1 (stereo not drawn)     > 100 µg/mL
1  Oc1ccc(C(c2cc(Br)c(O)cc2O)c2c(Cl)cccc2Cl)c(O)c1 (stereo not drawn)     > 100 µg/mL

Query: Need MIC, item O=[N+]([O-])c1ccc(C(c2ccc(O)cc2O)c2cc(Br)c(O)cc2O)cc1 (stereo not drawn)
Response: > 100 µg/mL

---

- System: Trichophyton mentagrophytes
- Procedure Text: Antifungal activity against Trichophyton mentagrophytes IFO 40996 after 48 to 72 hrs by two fold serial dilution method
- Assay type: functional
Provide the reported MIC of each item.

In [3]: df
Out[3]:
                                   compound        target_or_test_system  recorded_value
0  Oc1ccc(C(c2ccc(O)cc2O)c2cc(Br)c(O)cc2O)cc1 (stereo not drawn)  Trichophyton mentagrophytes     > 100 µg/mL

# return MIC for each item in the list
1. O=[N+]([O-])c1ccc(C(c2cc(Br)c(O)cc2O)c2cc(Br)c(O)cc2O)cc1
2. CCCCCC(c1ccc(O)cc1O)c1ccc(O)cc1O

Response:
["> 100 µg/mL", "> 100 µg/mL"]
